This collection of values is drawn from ChEMBL document CHEMBL1133606.

molecular target: Sodium-dependent serotonin transporter (Homo sapiens); experiment: Inhibition of [3H]citalopram binding to the serotonin transporter in cynomolgus (macaca fascicularis) monkey caudate putamen.; type: tissue-based, Cercopithecidae; settings: target entry is the homologue from another species
Sequence (P31645 whole entry): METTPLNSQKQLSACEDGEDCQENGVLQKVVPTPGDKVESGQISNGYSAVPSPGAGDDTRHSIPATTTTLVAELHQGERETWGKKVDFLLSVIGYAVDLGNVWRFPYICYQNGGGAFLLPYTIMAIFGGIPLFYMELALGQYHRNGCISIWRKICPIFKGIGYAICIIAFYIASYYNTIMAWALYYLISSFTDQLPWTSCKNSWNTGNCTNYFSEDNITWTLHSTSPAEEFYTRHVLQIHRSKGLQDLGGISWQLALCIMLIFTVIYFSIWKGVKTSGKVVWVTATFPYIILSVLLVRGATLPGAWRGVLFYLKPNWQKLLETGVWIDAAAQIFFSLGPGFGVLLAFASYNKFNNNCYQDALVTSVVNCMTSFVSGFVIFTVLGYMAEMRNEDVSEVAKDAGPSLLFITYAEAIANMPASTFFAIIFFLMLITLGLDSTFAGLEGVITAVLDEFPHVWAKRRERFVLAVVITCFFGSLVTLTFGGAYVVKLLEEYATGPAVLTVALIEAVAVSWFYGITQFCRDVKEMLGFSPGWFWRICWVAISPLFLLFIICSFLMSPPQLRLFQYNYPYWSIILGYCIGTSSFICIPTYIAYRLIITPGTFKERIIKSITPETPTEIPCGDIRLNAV
Rule: IC50 below 600 nM gives Condition met, anything at or above gives Condition not met.

{"compound": "COC(=O)[C@H]1C(c2ccc3ccccc3c2)CC2CCC1N2C (stereo not given in full)", "category": "Condition met"}
{"compound": "COC(=O)[C@H]1C2CCC(C2)C[C@@H]1c1ccc(Cl)c(Cl)c1 (stereo in doubt; 7a)", "category": "Condition met"}
{"compound": "COC(=O)[C@H]1C2CCC(C2)C[C@@H]1c1ccc2ccccc2c1 (stereo in doubt; 9b)", "category": "Condition met"}

Incoming: Below 600 nM on IC50? Entry COC(=O)[C@H]1[C@@H](c2ccc(F)cc2)C[C@H]2CC[C@H]1N2C (stereo in doubt; 13c)
Outgoing: Condition not met

Incoming: Below 600 nM on IC50? Entry COC(=O)C1=C(c2ccc3ccccc3c2)CC2CCC1C2 (stereo not given)
Outgoing: Condition not met

Incoming: Below 600 nM on IC50? Entry COC(=O)[C@H]1C2CCC(C2)C[C@@H]1c1ccc(Cl)c(Cl)c1 (stereo in doubt; 9a)
Outgoing: Condition met

Incoming: Below 600 nM on IC50? Entry COC(=O)c1ccccc1-c1ccc2ccccc2c1
Outgoing: Condition not met

Incoming: Below 600 nM on IC50? Entry COC(=O)[C@@H]1C2CCC(C2)C[C@@H]1c1ccc(Cl)c(Cl)c1 (stereo not given in full)
Outgoing: Condition not met

Incoming: Below 600 nM on IC50? Entry COC(=O)C1C(c2ccc3ccccc3c2)CC2CCC1N2C (stereo not given)
Outgoing: Condition met

----------
molecular target: Monoamine transporters; serotonin & dopamine (UniProt P31645+Q01959); assay: Selectivity, ratio of binding to serotonin transporter (SERT) and dopamine transporter (DAT); format: protein assay; conditions: Cercopithecidae
Sequence (P31645 whole entry, looked up): as the sequence (P31645 whole entry) above
Sequence (Q01959 whole entry, looked up): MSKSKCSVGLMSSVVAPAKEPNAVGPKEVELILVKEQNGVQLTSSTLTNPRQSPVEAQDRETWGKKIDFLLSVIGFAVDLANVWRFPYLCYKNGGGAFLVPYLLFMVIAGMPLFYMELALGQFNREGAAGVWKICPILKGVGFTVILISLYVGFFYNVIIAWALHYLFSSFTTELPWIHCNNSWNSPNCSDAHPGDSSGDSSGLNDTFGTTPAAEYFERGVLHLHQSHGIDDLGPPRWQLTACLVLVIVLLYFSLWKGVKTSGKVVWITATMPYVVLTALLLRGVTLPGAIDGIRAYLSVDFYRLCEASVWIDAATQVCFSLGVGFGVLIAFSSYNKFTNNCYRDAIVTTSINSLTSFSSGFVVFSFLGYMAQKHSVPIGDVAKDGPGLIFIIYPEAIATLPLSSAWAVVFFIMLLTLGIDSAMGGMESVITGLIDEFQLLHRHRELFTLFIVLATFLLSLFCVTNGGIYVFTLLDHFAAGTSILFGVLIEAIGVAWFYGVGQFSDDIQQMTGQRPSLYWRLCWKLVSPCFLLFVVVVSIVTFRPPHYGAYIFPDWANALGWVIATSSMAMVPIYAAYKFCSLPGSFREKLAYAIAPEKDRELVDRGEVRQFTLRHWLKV
experimentalEndpoint: Selectivity
Note: the reply should be a number with no unit written.

Here are 5 compounds together with their reported answers.
{"compound": "COC(=O)c1ccccc1-c1ccc(Cl)cc1", "Selectivity": 68}
{"compound": "COC(=O)C1C(c2ccc(Cl)c(Cl)c2)CC2CCC1N2C (stereo in doubt; 14a)", "Selectivity": 68}
{"compound": "COC(=O)[C@H]1C(c2ccc3ccccc3c2)CC2CCC1N2C (stereo not given in full)", "Selectivity": 10}
{"compound": "COC(=O)[C@H]1C2CCC(C2)C[C@@H]1c1ccc2ccccc2c1 (stereo in doubt; 8b)", "Selectivity": 67}
{"compound": "COC(=O)[C@H]1C2CCC(C2)C[C@@H]1c1ccc2ccccc2c1 (stereo in doubt; 9b)", "Selectivity": 4}

Incoming: Form field: reported Selectivity of COC(=O)c1ccccc1-c1ccc2ccccc2c1
Outgoing: 69

Incoming: Form field: reported Selectivity of COC(=O)C1C(c2ccc(Cl)c(Cl)c2)CC2CCC1N2C (stereo in doubt; 12a)
Outgoing: 2

Incoming: Form field: reported Selectivity of COC(=O)C1=C(c2ccc(F)cc2)CC2CCC1C2 (stereo not given)
Outgoing: 91

Incoming: Form field: reported Selectivity of COC(=O)C1=C(c2ccc(F)cc2)CC2CCC1N2C (stereo not given)
Outgoing: 20

Incoming: Form field: reported Selectivity of COC(=O)[C@@H]1C2CCC(C2)C[C@@H]1c1ccc2ccccc2c1 (stereo not given in full)
Outgoing: 2
